- Test system: Escherichia coli
- METHOD: Antibacterial activity against Escherichia coli ATCC 25922 incubated for 18 to 24 hrs by broth microdilution method
- Type: functional
- EXPERIMENTAL_CONTEXT: time 18-24 hrs
Non-standard residues stand in square brackets, D forms with d. Residues, ends and D or L forms follow the SMILES beside them. Bip = N[C@@H](Cc1ccc(-c2ccccc2)cc1)C(=O)O; pY = N[C@@H](Cc1ccc(OP(=O)(O)O)cc1)C(=O)O; pT = C[C@@H](OP(=O)(O)O)[C@H](N)C(=O)O; 2Nal = N[C@@H](Cc1ccc2ccccc2c1)C(=O)O
Record form. Attribute: MIC. Fill in for each entry.

Sure, the documented MIC for CC(C)C[C@H](NC(=O)[C@H](CC(C)C)NC(=O)[C@@H](NC(=O)[C@H](CCCCN)NC(=O)[C@H](CC(C)C)NC(=O)[C@H](CCCNC(=N)N)NC(=O)[C@H](CCCCN)NC(=O)[C@H](Cc1ccc2ccccc2c1)NC(=O)[C@H](CC(C)C)NC(=O)CN)[C@@H](C)O)C(N)=O (H-GL[2Nal]KRLKTLL-NH2) is 8 µM

Field MIC (entry CC(C)C[C@H](NC(=O)[C@H](CC(C)C)NC(=O)[C@@H](NC(=O)[C@H](CCCCN)NC(=O)[C@H](CC(C)C)NC(=O)[C@H](CCCNC(=N)N)NC(=O)[C@H](CCCCN)NC(=O)[C@H](Cc1ccc(-c2ccccc2)cc1)NC(=O)[C@H](CC(C)C)NC(=O)CN)[C@@H](C)OP(=O)(O)O)C(N)=O (H-GL[Bip]KRLK[pT]LL-NH2) ) reads 32 µM

Entry CC(C)C[C@H](NC(=O)[C@H](CC(C)C)NC(=O)[C@H](Cc1ccc(OP(=O)(O)O)cc1)NC(=O)[C@H](CCCCN)NC(=O)[C@H](CC(C)C)NC(=O)[C@H](CCCNC(=N)N)NC(=O)[C@H](CCCCN)NC(=O)[C@H](Cc1ccc2ccccc2c1)NC(=O)[C@H](CC(C)C)NC(=O)CN)C(N)=O (H-GL[2Nal]KRLK[pY]LL-NH2) , MIC reported as 8 µM

Record summary for CC(C)C[C@H](NC(=O)[C@H](CC(C)C)NC(=O)[C@H](Cc1ccc(OP(=O)(O)O)cc1)NC(=O)[C@H](CCCCN)NC(=O)[C@H](Cc1ccc(-c2ccccc2)cc1)NC(=O)[C@H](CCCNC(=N)N)NC(=O)[C@H](CCCCN)NC(=O)[C@H](CC(C)C)NC(=O)[C@H](CC(C)C)NC(=O)CN)C(N)=O (H-GLLKR[Bip]K[pY]LL-NH2) : reported MIC = 8 µM

The value of MIC measured for the molecule CC(C)C[C@H](NC(=O)[C@H](CC(C)C)NC(=O)[C@H](Cc1ccc(OP(=O)(O)O)cc1)NC(=O)[C@H](CCCCN)NC(=O)[C@H](CC(C)C)NC(=O)[C@H](CCCNC(=N)N)NC(=O)[C@H](CCCCN)NC(=O)[C@H](Cc1c[nH]c2ccccc12)NC(=O)[C@H](CC(C)C)NC(=O)CN)C(N)=O (H-GLWKRLK[pY]LL-NH2) turned out to be 8 µM

# MIC of CC(C)C[C@H](NC(=O)[C@H](CC(C)C)NC(=O)[C@@H](NC(=O)[C@H](CCCCN)NC(=O)[C@H](CC(C)C)NC(=O)[C@H](CCCNC(=N)N)NC(=O)[C@H](CCCCN)NC(=O)[C@H](Cc1ccc(-c2ccccc2)cc1)NC(=O)[C@H](CC(C)C)NC(=O)CN)[C@@H](C)O)C(N)=O (H-GL[Bip]KRLKTLL-NH2) = 8 µM
